target: Hck (UniProt P08631); assay: phosphorylation enrichment, bacterial display (enrichment ratio); higher = better substrate or ligand; peptides without Tyr show the background;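 further: 11-residue human phosphosite peptides and single-mutation variants displayed on the E. coli surface, counted by deep sequencing, each peptide's frequency after selection divided by its frequency in the unselected input library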;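 further: frequency after pTyr selection over input frequency; kinase dosed for 20-30% of maximal phosphorylation in three min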
Sequence (P08631 whole entry, looked up): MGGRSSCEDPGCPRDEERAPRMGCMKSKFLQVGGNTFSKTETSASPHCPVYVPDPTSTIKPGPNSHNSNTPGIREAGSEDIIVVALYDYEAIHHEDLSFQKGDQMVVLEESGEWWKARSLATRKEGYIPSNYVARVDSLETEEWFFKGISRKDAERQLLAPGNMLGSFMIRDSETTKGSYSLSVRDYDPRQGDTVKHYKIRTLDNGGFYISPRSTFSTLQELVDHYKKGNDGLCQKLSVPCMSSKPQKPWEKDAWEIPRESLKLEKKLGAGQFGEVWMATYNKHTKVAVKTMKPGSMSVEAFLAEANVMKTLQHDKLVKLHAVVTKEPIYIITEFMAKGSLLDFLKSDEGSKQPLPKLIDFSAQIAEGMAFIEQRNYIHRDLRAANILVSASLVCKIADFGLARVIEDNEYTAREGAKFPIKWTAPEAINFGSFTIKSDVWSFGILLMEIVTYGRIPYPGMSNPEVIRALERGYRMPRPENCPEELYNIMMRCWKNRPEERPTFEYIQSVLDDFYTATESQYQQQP
What phosphorylation enrichment was measured for each of the following?
Answers are plain numbers.

sequence_string	system	phosphorylation enrichment
RQQQDYWLIDV [ANPEP_Y600]	Hck (UniProt P08631)	0.625
MTKEQYIKMNR [ARFGEF2_Y797]	Hck (UniProt P08631)	0.407

Look up phosphorylation enrichment for the entries below, preserving their order.
1. ALARKYHGGGG [HBB_Y146_H144R]
2. PTTKTYFPHFA [HBA1_Y43_D48A]
3. MENFIYESMRY [CYP19A1_Y361]
4. LVMFIYAISGM [SCN1A_Y1684_F1687S]
5. QEGPEYWDEET [HLA-A_Y83_Q86E]
6. QWQQLYDTLNA [EIF3M_Y351]
7. QRVLLYVRRET [GRHL3_Y518]
8. KNRDVSSSDYF [USP24_Y2134_Y2134S]

Completion:
0.317
0.754
6.76
0.727
1.05
8.42
0.669
0.402
